Test system: MS2 coat protein
measurement notes: apparent Kd, MS2 coat protein; higher = weaker binding; RNA-MaP array; FMN 200 µM where present
experimental parameters: ligand present: flavin mononucleotide; designed as: OFF switch for flavin mononucleotide
If the reported apparent Kd equals or exceeds 20 nM, assign true (1). If not, assign false (0).

[
  {
    "primary sequence": "CCUCCACAUGAGGAUCACCCAUGUCAGGAUAUCGUGUGCGCGUUUUCGGUCUUUCGCGCGAGAAGGGACGUCUG",
    "system under test": "MS2 coat protein",
    "class assignment": "true (1)"
  },
  {
    "primary sequence": "GUCCUUUCUGAGGAUAUUAUCUGGUUCGAUUGAUAAGAAGGCAGUACAUGAGGAUCACCCAUGUGGGUCGUUUG",
    "system under test": "MS2 coat protein",
    "class assignment": "true (1)"
  },
  {
    "primary sequence": "AAGAAGUGAGGAUAUGGCCGGGUCCCUGGGUUUGGACCCGGCCAGAAGGCACAUGAGGAUCACCCAUGUAAGAA",
    "system under test": "MS2 coat protein",
    "class assignment": "true (1)"
  },
  {
    "primary sequence": "UGUAUACAGUCAGGAUAUCAUAGGUUGGUGCUUCUCCAGUGGUACAUGAGGAUCACCCAUGUUUAUGAGAAGGGACUAUUACCU",
    "system under test": "MS2 coat protein",
    "class assignment": "false (0)"
  },
  {
    "primary sequence": "UUGACGGCAGGAUAUACAUGAGGAUCACCCAUGUAAAUUUUUCGUUUAACUUGAAUGUGUAGAAGGGCCAAAAU",
    "system under test": "MS2 coat protein",
    "class assignment": "false (0)"
  },
  {
    "primary sequence": "CAUCUCUAUGUAGGAUAUAGGACAACAACAGCACUAGAAGGACAUGAGGAUCACCCAUGUACACUACUCGCGUCAUCGUCUCGC",
    "system under test": "MS2 coat protein",
    "class assignment": "false (0)"
  },
  {
    "primary sequence": "CUCUAUCAUGUAGGAUAUGCGUGUCGAAGCUAUGCAGAAGGACAUGAGGAUCACCCAUGUCUUUCUGUCUGCGGACGGACAGGG",
    "system under test": "MS2 coat protein",
    "class assignment": "false (0)"
  },
  {
    "primary sequence": "ACAAGGCAUGUAGGAUAUCCAUUGCGUCGCGAUGGAGAAGGACAACACACAUGAGGAUCACCCAUGUGAUCACCCAUGUCGUGU",
    "system under test": "MS2 coat protein",
    "class assignment": "true (1)"
  }
]
